# Target Entity: Human-Fc-tagged SARS-CoV2 S1 recombinant protein (Sino Biologicals) (SARS-CoV-2, UniProt P0DTC2 16-685)
Readout Kind: IC50

Query :: # IC50 lookup, item P043.A.00017.E04 (antibody, V domains shown) VH: QSVEESGGRLVTPGTPLTLTCTVSGFSLNNYAMNWVRQAPGKGLEWIGIISSSGNTYYANWAKGRFTISKTSTTVDLKITSPTTEDTATYFCARDSYPGYSPYYGMDPWGPGTLVTVSS VL: AIQMTQSPSSLAASVGDTVTITCKASEDIAYGLNWYQQKLGITPKLLIYGANTLESGVPSRFSGSGSETHYTLTISSVQAEDAGIYYCQQGYNTPPTFGAGTKVEIK
Result :: 9.3 ng/mL

Query :: # IC50 lookup, item P043.A.00024.C11 (protein sample ID 451) (antibody, V domains shown) VH: QSVEESGGRLVTPGTPLTLTCTVSGFSLSSYAMSWVRQAPGKGLEWIGIISSSGTTYYASWAKGPFTISKTSTTVDLKITSPTTEDTATYFCARGGAGYGYAHYYGMDPWGPGTLVTVSS VL: AIQMTQSPSSLAASVGDTVTITCKASEDIGYGLNWYQQKLGIAPKLLIYGANTLESGVPSRFSGSGSETDYTLTISSVQAEDAGIYYCQQGYSTPLTFGAGTKVEIK
Result :: 3.6 ng/mL

Query :: # IC50 lookup, item P043.A.00097.B02 (antibody, V domains shown) VH: QELVESGGGLVQAGESLKLSCKASGIDFSSYGISWVRQAPGKGLEWIAYIYPGFGITNYANSVKGRFTISSDNAQNTVFLQMTSLTASDTATYFCTRAYASSSGYYIHYFNLWGPGTLVTVSS VL: AIQMTQSPSSLAASVGDTVTITCKASEDIGYGLNWYQQKLGIAPKLLIYGANTLESGVPSRFSGSGSETDYTLTISSVQAEDAGIYYCQQAYSTPLTFGAGTKVEIK
Result :: 5.5 ng/mL
